Data provenance is paper PMC10066365.

system: Pristionchus pacificus; experiment: Pristionchus pacificus motor disruption dose-response on solid media, 1 h; conditions: conc 3.75; count of 20 animals per trial, one hour
Assignment: determine reported rep 2 no phene for the given compounds.

>>> print(df.to_string())
                                   compound     readouttype  testresult
0  O=[N+]([O-])c1ccc(N2CCN(C3CCCCC3)CC2)cc1 [Nemacol-64]  rep 2 no phene          20
1  c1ccc(N2CCN(CC3CCCC3)CC2)cc1 [Nemacol-62]  rep 2 no phene          20
2  FC(F)(F)c1cccc(N2CCN(CC3CCCC3)CC2)c1 [Nemacol-63]  rep 2 no phene          19
3  c1cc(N2CCN(CC3CCC3)CC2)ccn1 [Nemacol-60]  rep 2 no phene          20
4  c1ccc(N2CCN(C3CCCCCC3)CC2)cc1 [Nemacol-59]  rep 2 no phene          20

# batch: return rep 2 no phene for each of the 5 compounds below
1. Clc1ccc(N2CCN(CC3CC4C=CC3C4)CC2)cc1 (stereo not shown) [Nemacol-46]
2. CC1CCC(N2CCN(c3ccccc3)CC2)CC1 (stereo not shown) [Nemacol-50]
3. CC1CCC(N2CCN(c3ccc(F)cc3)CC2)CC1 (stereo not shown) [Nemacol-53]
4. Fc1ccccc1N1CCN(C2CCCCCC2)CC1 [Nemacol-56]
5. O=C(C1CCC1)N1CCN(c2ccc(F)cc2)CC1 [Nemacol-18]

Ans:
16
20
19
20
20

# batch: return rep 2 no phene for each of the 3 compounds below
1. CC1CCC(N2CCN(c3ccc(Cl)cc3)CC2)C1 (stereo not shown) [Nemacol-44]
2. c1ccc(N2CCN(C3CCCCCCC3)CC2)cc1 [Nemacol-54]
3. FC(F)(F)c1cccc(N2CCN(CC3CCCCC3)CC2)c1 [Nemacol-49]

Ans:
[2, 20, 20]

====

system: Pristionchus pacificus; assay: Pristionchus pacificus motor disruption dose-response on solid media, 1 h; conditions: conc 15; count of 20 animals per trial, one hour
readoutType: rep 3 paralyzed
One number for each entry.

Below: 5 compounds and their reported rep 3 paralyzed.
                                   compound  testresult
0     FC(F)(F)c1cccc(N2CCN(CC3CCCCC3)CC2)c1           0
1               c1cc(N2CCN(CC3CCC3)CC2)ccn1           0
2              c1ccc(N2CCN(CC3CCCC3)CC2)cc1           0
3            c1ccc(N2CCN(C3CCCCCCC3)CC2)cc1           0
4  CC1CCC(N2CCN(c3ccccc3)CC2)CC1 (centres unmarked)           0

# batch: return rep 3 paralyzed for each of the 3 compounds below
1. Fc1ccccc1N1CCN(C2CCCCCC2)CC1
2. O=[N+]([O-])c1ccc(N2CCN(C3CCCCC3)CC2)cc1
3. c1ccc(N2CCN(C3CCCCCC3)CC2)cc1

Ans:
[0, 0, 0]

====

system: Pristionchus pacificus; test: Pristionchus pacificus motor disruption dose-response on solid media, 1 h; settings: conc 3.75; count of 20 animals per trial, one hour
readoutType: rep 2 atypical locomotion
One number for each entry.

Below: 5 compounds and their reported rep 2 atypical locomotion.
In [3]: df
Out[3]:
                                   compound  testresult
0  c1ccc(N2CCN(C3CCCCCC3)CC2)cc1 [Nemacol-59]           0
1  O=[N+]([O-])c1ccc(N2CCN(C3CCCCC3)CC2)cc1 [Nemacol-64]           0
2  Fc1ccccc1N1CCN(C2CCCCCC2)CC1 [Nemacol-56]           0
3  O=C(C1CCC1)N1CCN(c2ccc(F)cc2)CC1 [Nemacol-18]           0
4  CC1CCC(N2CCN(c3ccccc3)CC2)CC1 (stereo not shown) [Nemacol-50]           0

# batch: return rep 2 atypical locomotion for each of the 5 compounds below
1. c1ccc(N2CCN(CC3CCCC3)CC2)cc1 [Nemacol-62]
2. CC1CCC(N2CCN(c3ccc(F)cc3)CC2)CC1 (stereo not shown) [Nemacol-53]
3. CC1CCC(N2CCN(c3ccc(Cl)cc3)CC2)C1 (stereo not shown) [Nemacol-44]
4. Clc1ccc(N2CCN(CC3CC4C=CC3C4)CC2)cc1 (stereo not shown) [Nemacol-46]
5. FC(F)(F)c1cccc(N2CCN(CC3CCCC3)CC2)c1 [Nemacol-63]

Ans:
1: 0; 2: 1; 3: 10; 4: 4; 5: 1

====

system: Pristionchus pacificus; assay: Pristionchus pacificus motor disruption dose-response on solid media, 1 h; conditions: conc 15; any phenotype (coiled, jerky-Unc or paralyzed) at one hour; mean of three biological replicates
readoutType: mean % any phene (%)
Answers are plain numbers, in %.

Below: 3 compounds and their reported mean % any phene.
In [3]: df
Out[3]:
                                   compound  testresult
0             c1ccc(N2CCN(C3CCCCCC3)CC2)cc1           0
1      FC(F)(F)c1cccc(N2CCN(CC3CCCC3)CC2)c1       1.667
2  CC1CCC(N2CCN(c3ccccc3)CC2)CC1 (stereo not shown)           0

# batch: return mean % any phene for each of the 3 compounds below
1. FC(F)(F)c1cccc(N2CCN(CC3CCCCC3)CC2)c1
2. O=[N+]([O-])c1ccc(N2CCN(C3CCCCC3)CC2)cc1
3. CC1CCC(N2CCN(c3ccc(F)cc3)CC2)CC1 (stereo not shown)

Ans:
1. 0
2. 70.8333
3. 57.5

====

tested on: C. elegans; assay: Suppression of trichlorfon (AChE inhibitor) paralysis, double dose-response, scored after 80 min; format: in vivo, Caenorhabditis elegans; conditions: Caenorhabditis elegans, read-out: EC50 of trichlorfon paralysis, vesamicol 62.5 μM; ± 95% CI
readoutType: EC50 (µM)
Numbers only, in µM.

Q: Please tell me: EC50 of COP(=O)(OC)C(O)C(Cl)(Cl)Cl (stereo not shown) , system C. elegans?
Ans: 121

====

Molecular target: rat VAChT (Rattus norvegicus)
Construct: expressed in transfected cells; host or cells: rat PC12 (PC12 A123.7) cells, stably transfected; shared by Dr. Ali Roghani (Texas Tech University)
Sequence (Q62666 1-530): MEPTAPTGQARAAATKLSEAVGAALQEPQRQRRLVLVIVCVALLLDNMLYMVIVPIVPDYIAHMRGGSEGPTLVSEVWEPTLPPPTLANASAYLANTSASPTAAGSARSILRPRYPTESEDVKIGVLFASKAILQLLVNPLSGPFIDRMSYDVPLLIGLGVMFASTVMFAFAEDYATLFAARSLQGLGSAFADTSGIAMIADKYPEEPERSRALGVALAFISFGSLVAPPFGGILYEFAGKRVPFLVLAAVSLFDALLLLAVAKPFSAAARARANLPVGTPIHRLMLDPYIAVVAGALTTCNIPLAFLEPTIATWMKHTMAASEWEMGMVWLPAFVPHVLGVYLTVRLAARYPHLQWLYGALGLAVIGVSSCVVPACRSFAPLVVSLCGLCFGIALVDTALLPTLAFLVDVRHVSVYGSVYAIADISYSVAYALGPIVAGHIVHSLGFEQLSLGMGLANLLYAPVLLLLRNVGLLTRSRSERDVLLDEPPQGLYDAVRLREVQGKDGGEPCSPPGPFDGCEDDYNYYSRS
Assay: [3H]Vesamicol competitive radioligand binding, PC12 cells expressing ratVAChT
Conditions: [3H]Vesamicol binding, PC12; third experiment column (date expt 3); read-out: expt 2 Ki (M) vs. rat VAChT (PC12)
readoutType: Ki (M)
One number for each entry, in M.

Q: What does the data say about its Ki? Entry: CC1CCC(N2CCN(c3ccccc3)CC2)CC1 (stereo not shown)
Ans: 1.95e-06

====

molecular target: rat VAChT (Rattus norvegicus, UniProt Q62666); construct: expressed in transfected cells; host or cells: rat PC12 (PC12 A123.7) cells, stably transfected; shared by Dr. Ali Roghani (Texas Tech University); assay: [3H]Vesamicol competitive radioligand binding, PC12 cells expressing ratVAChT; settings: ratVAChT Ki, [3H]Vesamicol displacement, mean
readoutType: pKi
Give bare numbers, as −log10 of the molar value.

>>> print(df.to_string())
                                   molecule  readouttype  testresult
0  O=[N+]([O-])c1ccc(N2CCN(CC3CCCCC3)CC2)cc1 [Nemacol-1]          pKi        6.11

Q: What does the data say about its pKi? Entry: O[C@@H]1CCCC[C@H]1N1CCC(c2ccccc2)CC1 (racemic) [vesamicol, reference compound]
Ans: 7.68

====

Molecular target: rat VAChT (Rattus norvegicus)
Construct: expressed in transfected cells; host or cells: rat PC12 (PC12 A123.7) cells, stably transfected; shared by Dr. Ali Roghani (Texas Tech University)
Sequence (Q62666 1-530): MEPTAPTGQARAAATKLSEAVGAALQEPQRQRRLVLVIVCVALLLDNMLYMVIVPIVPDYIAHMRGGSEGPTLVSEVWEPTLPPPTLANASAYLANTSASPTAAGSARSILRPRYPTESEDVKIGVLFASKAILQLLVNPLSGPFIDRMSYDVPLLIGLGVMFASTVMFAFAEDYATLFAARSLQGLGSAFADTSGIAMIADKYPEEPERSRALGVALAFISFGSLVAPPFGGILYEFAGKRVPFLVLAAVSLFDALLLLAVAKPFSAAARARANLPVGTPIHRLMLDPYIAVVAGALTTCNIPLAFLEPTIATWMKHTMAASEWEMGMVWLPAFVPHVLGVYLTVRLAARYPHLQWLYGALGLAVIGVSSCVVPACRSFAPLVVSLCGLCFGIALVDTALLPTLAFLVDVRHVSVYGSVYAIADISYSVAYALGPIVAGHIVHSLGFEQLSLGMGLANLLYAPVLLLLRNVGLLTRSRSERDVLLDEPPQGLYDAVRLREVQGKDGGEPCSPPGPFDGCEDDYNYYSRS
Assay: [3H]Vesamicol competitive radioligand binding, PC12 cells expressing ratVAChT
Details: [3H]Vesamicol displacement, mean; read-out: ratVAChT Ki
Under this convention, true denotes Ki strictly below 2000 nM and false denotes Ki at or above 2000 nM.

Q: Input FC(F)(F)c1cccc(N2CCN(CC3CCCC3)CC2)c1 [Nemacol-63] ; condition: Ki strictly below 2000 nM. Does it hold?
Ans: false

Q: Input CC1CCC(N2CCN(c3ccc([N+](=O)[O-])cc3)CC2)CC1 (stereo not drawn) [Nemacol-5] ; condition: Ki strictly below 2000 nM. Does it hold?
Ans: true

Q: Input c1ccc(N2CCN(C3CCCCCC3)CC2)cc1 [Nemacol-59] ; condition: Ki strictly below 2000 nM. Does it hold?
Ans: true

Q: Input c1ccc(N2CCN(CC3CCCC3)CC2)cc1 [Nemacol-62] ; condition: Ki strictly below 2000 nM. Does it hold?
Ans: false

Q: Input O=[N+]([O-])c1ccc(N2CCN(C3CCCCCC3)CC2)cc1 [Nemacol-19] ; condition: Ki strictly below 2000 nM. Does it hold?
Ans: true
